We begin with a simple list: items and their reported IC50.
# Test system: HT-29 cells
# ASSAY_REMARKS: Proliferation inhibition assay of cancer cells (Test Example 1), HT-29
# Type: cell-based, human
# DETAILS: Homo sapiens, HT-29, 96 h, HT-29 cells, cultured for 4 days, Cell Titer-Glo; read-out: IC50 (μM) HT; concentration for 50% inhibition of cell proliferation (Bulk IC50 value)

MOLECULE: CC(=O)c1cc2c(o1)C(=O)c1ccsc1C2=O [Example 56]
UNIT: µM
COMPARISON_SIGN: =
IC50: 0.62

MOLECULE: CC(=O)c1cc2c(o1)C(=O)c1ccncc1C2=O [Example 44]
UNIT: µM
COMPARISON_SIGN: =
IC50: 0.51

MOLECULE: CC(C)(O)c1cc2c(s1)C(=O)c1ccncc1C2=O [Example 15]
UNIT: µM
COMPARISON_SIGN: =
IC50: 0.61

MOLECULE: CC(=O)c1cc2c(o1)C(=O)c1sccc1C2=O [Example 52]
UNIT: µM
COMPARISON_SIGN: =
IC50: 0.64

MOLECULE: COc1c2ccncc2c(OC)c2sc(C(C)O)cc12 (stereo not shown) [Example 34]
UNIT: µM
COMPARISON_SIGN: =
IC50: 0.64

MOLECULE: O=C1c2cc(CN3CCOCC3)sc2C(=O)c2cccnc21 [Example 4]
UNIT: µM
COMPARISON_SIGN: =
IC50: 0.68

MOLECULE: O=C1c2cnccc2C(=O)c2sc(N3CCOCC3)cc21 [Example 32]
UNIT: µM
COMPARISON_SIGN: >
IC50: 10

MOLECULE: C#Cc1cc2c(s1)C(=O)c1ccncc1C2=O [Example 61]
UNIT: µM
COMPARISON_SIGN: =
IC50: 0.54

MOLECULE: CCOC(=O)/C=C/c1cc2c(s1)C(=O)c1ccncc1C2=O [Example 60]
UNIT: µM
COMPARISON_SIGN: >
IC50: 10

MOLECULE: CCN(Cc1cc2c(o1)C(=O)c1cccnc1C2=O)C(=O)CC(C)C [Example 9]
UNIT: µM
COMPARISON_SIGN: >
IC50: 10
